Metric Name: melting point

Reference set (3 entries):
{"Compound": "CCN(CC)CC(=O)Nc1cccc2c1C(=O)c1c(NC(=O)CN(CC)CC)cccc1C2=O [Compound 3l]", "Endpoint Result": "228 to 229 °C"}
{"Compound": "O=C(CCNCc1cc(F)cc(F)c1)Nc1cccc2c1C(=O)c1c(NC(=O)CCNCc3cc(F)cc(F)c3)cccc1C2=O [Compound 4c]", "Endpoint Result": "190 to 191 °C"}
{"Compound": "CCN(CC)CCC(=O)Nc1cccc2c1C(=O)c1c(NC(=O)CCN(CC)CC)cccc1C2=O [Compound 4a]", "Endpoint Result": "160 to 161 °C"}

Next compound, melting point to be filled in.
Reported melting point, compound COC(=O)CNCC(=O)Nc1cccc2c1C(=O)c1c(NC(=O)CNCC(=O)OC)cccc1C2=O [Compound 3a] : ____ 173 to 174 °C

---

Measured viability at 46 h, 10 μM, listed per entry for reference.
test: MTT colorimetric assay, normal SVG p12 cells; conditions: human, SVG p12 cells (normal human brain astroglia), Cell viability (%) SVG p12, conc. 10 μM, 46 hours with drug, then 2 hours MTT, ratio to control group without drug

Reference set (10 entries):
{"Compound": "CN(C)CCCNCCC(=O)Nc1cccc2c1C(=O)c1c(NC(=O)CCNCCCN(C)C)cccc1C2=O [Compound 4j]", "viability at 46 h, 10 μM": "33%"}
{"Compound": "COC(=O)CNCC(=O)Nc1cccc2c1C(=O)c1c(NC(=O)CNCC(=O)OC)cccc1C2=O [Compound 3a]", "viability at 46 h, 10 μM": "93%"}
{"Compound": "CC(C)NCC(=O)Nc1cccc2c1C(=O)c1c(NC(=O)CNC(C)C)cccc1C2=O [Compound 3o]", "viability at 46 h, 10 μM": "4%"}
{"Compound": "CCCN(C)CC(=O)Nc1cccc2c1C(=O)c1c(NC(=O)CN(C)CCC)cccc1C2=O [Compound 3s]", "viability at 46 h, 10 μM": "132%"}
{"Compound": "COC(=O)[C@H](CC(C)C)NCC(=O)Nc1cccc2c1C(=O)c1c(NC(=O)CN[C@H](CC(C)C)C(=O)OC)cccc1C2=O [Compound 3g]", "viability at 46 h, 10 μM": "153%"}
{"Compound": "CN(C)CCC(=O)Nc1cccc2c1C(=O)c1c(NC(=O)CCN(C)C)cccc1C2=O [Compound 4f]", "viability at 46 h, 10 μM": "4%"}
{"Compound": "O=C(CNCc1cccc(C(F)(F)F)c1)Nc1cccc2c1C(=O)c1c(NC(=O)CNCc3cccc(C(F)(F)F)c3)cccc1C2=O [Compound 3q]", "viability at 46 h, 10 μM": "135%"}
{"Compound": "CNCCC(=O)Nc1cccc2c1C(=O)c1c(NC(=O)CCNC)cccc1C2=O [Compound 4h]", "viability at 46 h, 10 μM": "4%"}
{"Compound": "CCN(CC)CCC(=O)Nc1cccc2c1C(=O)c1c(NC(=O)CCN(CC)CC)cccc1C2=O [Compound 4a]", "viability at 46 h, 10 μM": "3%"}
{"Compound": "CC(C)NCCC(=O)Nc1cccc2c1C(=O)c1c(NC(=O)CCNC(C)C)cccc1C2=O [Compound 4i]", "viability at 46 h, 10 μM": "5%"}

Reported viability at 46 h, 10 μM, compound CCCN(CCC)CCC(=O)Nc1cccc2c1C(=O)c1c(NC(=O)CCN(CCC)CCC)cccc1C2=O [Compound 4g] : ____ 4%

Reported viability at 46 h, 10 μM, compound CC(C)(C)OC(=O)NCCNCCC(=O)Nc1cccc2c1C(=O)c1c(NC(=O)CCNCCNC(=O)OC(C)(C)C)cccc1C2=O [Compound 4d] : ____ 8%

Reported viability at 46 h, 10 μM, compound COC(=O)[C@@H](NCC(=O)Nc1cccc2c1C(=O)c1c(NC(=O)CN[C@@H](C(=O)OC)C(C)C)cccc1C2=O)C(C)C [Compound 3d] : ____ 87%

Reported viability at 46 h, 10 μM, compound CCNCC(=O)Nc1cccc2c1C(=O)c1c(NC(=O)CNCC)cccc1C2=O [Compound 3p] : ____ 3%

Reported viability at 46 h, 10 μM, compound CCN(C)CCC(=O)Nc1cccc2c1C(=O)c1c(NC(=O)CCN(C)CC)cccc1C2=O [Compound 4k] : ____ 2%

Reported viability at 46 h, 10 μM, compound CCN(CC)CC(=O)Nc1cccc2c1C(=O)c1c(NC(=O)CN(CC)CC)cccc1C2=O [Compound 3l] : ____ 123%

Reported viability at 46 h, 10 μM, compound CC(C)CNCCC(=O)Nc1cccc2c1C(=O)c1c(NC(=O)CCNCC(C)C)cccc1C2=O [Compound 4b] : ____ 4%

Reported viability at 46 h, 10 μM, compound CCN(C)CC(=O)Nc1cccc2c1C(=O)c1c(NC(=O)CN(C)CC)cccc1C2=O [Compound 3r] : ____ 125%

Reported viability at 46 h, 10 μM, compound COC(=O)[C@H](COC(C)(C)C)NCC(=O)Nc1cccc2c1C(=O)c1c(NC(=O)CN[C@H](COC(C)(C)C)C(=O)OC)cccc1C2=O [Compound 3t] : ____ > 80%

Reported viability at 46 h, 10 μM, compound CN(C)CC(=O)Nc1cccc2c1C(=O)c1c(NC(=O)CN(C)C)cccc1C2=O [Compound 3m] : ____ > 80%

Reported viability at 46 h, 10 μM, compound CN(C)CCNCCC(=O)Nc1cccc2c1C(=O)c1c(NC(=O)CCNCCN(C)C)cccc1C2=O [Compound 4e] : ____ 13%

Reported viability at 46 h, 10 μM, compound COC(=O)[C@H]1CCCN1CC(=O)Nc1cccc2c1C(=O)c1c(NC(=O)CN3CCC[C@H]3C(=O)OC)cccc1C2=O [Compound 3c] : ____ 121%

Reported viability at 46 h, 10 μM, compound COC(=O)CN(C)CC(=O)Nc1cccc2c1C(=O)c1c(NC(=O)CN(C)CC(=O)OC)cccc1C2=O [Compound 3f] : ____ 172%

Reported viability at 46 h, 10 μM, compound CCCN(CCC)CC(=O)Nc1cccc2c1C(=O)c1c(NC(=O)CN(CCC)CCC)cccc1C2=O [Compound 3n] : ____ 73%

Reported viability at 46 h, 10 μM, compound O=C(CCNCc1cc(F)cc(F)c1)Nc1cccc2c1C(=O)c1c(NC(=O)CCNCc3cc(F)cc(F)c3)cccc1C2=O [Compound 4c] : ____ > 80%

---

Metric Name: melting point

Reported melting point, compound CCCN(C)CC(=O)Nc1cccc2c1C(=O)c1c(NC(=O)CN(C)CCC)cccc1C2=O : ____ 159 to 160 °C

Reported melting point, compound CN(C)CCCNCCC(=O)Nc1cccc2c1C(=O)c1c(NC(=O)CCNCCCN(C)C)cccc1C2=O : ____ 107 to 108 °C

Reported melting point, compound CCN(C)CCC(=O)Nc1cccc2c1C(=O)c1c(NC(=O)CCN(C)CC)cccc1C2=O : ____ 129 to 130 °C

---

Measured melting point, listed per entry for reference.

Reference set (2 entries):
{"Chemical Smiles": "CC(C)(C)OC(=O)NCCNCCC(=O)Nc1cccc2c1C(=O)c1c(NC(=O)CCNCCNC(=O)OC(C)(C)C)cccc1C2=O", "Metric Name": "melting point", "Endpoint Result": "101 to 102 °C"}
{"Chemical Smiles": "COC(=O)[C@H]1CCCN1CC(=O)Nc1cccc2c1C(=O)c1c(NC(=O)CN3CCC[C@H]3C(=O)OC)cccc1C2=O", "Metric Name": "melting point", "Endpoint Result": "170 to 171 °C"}

Reported melting point, compound CN(C)CCNCCC(=O)Nc1cccc2c1C(=O)c1c(NC(=O)CCNCCN(C)C)cccc1C2=O : ____ 100 to 102 °C

Reported melting point, compound COC(=O)[C@@H](NCC(=O)Nc1cccc2c1C(=O)c1c(NC(=O)CN[C@@H](C(=O)OC)C(C)C)cccc1C2=O)C(C)C : ____ 150 to 151 °C

Reported melting point, compound CC(C)NCCC(=O)Nc1cccc2c1C(=O)c1c(NC(=O)CCNC(C)C)cccc1C2=O : ____ 105 to 106 °C

Reported melting point, compound CN(C)CCC(=O)Nc1cccc2c1C(=O)c1c(NC(=O)CCN(C)C)cccc1C2=O : ____ 116 to 117 °C

---

Metric Name: melting point

Reference set (3 entries):
{"Chemical Smiles": "CC(C)CNCCC(=O)Nc1cccc2c1C(=O)c1c(NC(=O)CCNCC(C)C)cccc1C2=O", "Endpoint Result": "224 to 225 °C"}
{"Chemical Smiles": "O=C(CNCc1cccc(C(F)(F)F)c1)Nc1cccc2c1C(=O)c1c(NC(=O)CNCc3cccc(C(F)(F)F)c3)cccc1C2=O", "Endpoint Result": "190 to 191 °C"}
{"Chemical Smiles": "CCN(C)CC(=O)Nc1cccc2c1C(=O)c1c(NC(=O)CN(C)CC)cccc1C2=O", "Endpoint Result": "186 to 187 °C"}

Next compound, melting point to be filled in.
Reported melting point, compound COC(=O)CN(C)CC(=O)Nc1cccc2c1C(=O)c1c(NC(=O)CN(C)CC(=O)OC)cccc1C2=O : ____ 129 to 130 °C
